# experimental_system: Monoglyceride lipase (Homo sapiens)
# assay_explanation: Inhibition of human recombinant MAGL assessed as remaining activity at 1 uM after 10 mins by spectrophotometry relative to control
Give measured Activity for each item. Keep answers brief.
One number for each entry, in %.

Give measured Activity for every item shown.
1. O=C(Nc1cccc(-c2ccccc2)c1)O[C@H]1C[C@H]2CC[C@@H]1C2
2. O=C(Nc1cccc(-c2ccccc2)c1)NC1CCCCCC1

95
96

Give Activity for each listed item.
1. O=C(Nc1cccc(-c2ccccc2)c1)NC1CCCCC1
2. O=C(Nc1cccc(-c2ccccc2)c1)NC1CCCC1
3. S=C(Nc1cccc(-c2ccccc2)c1)OC1CCCCC1
4. CC(C)[C@@H]1CC[C@@H](C)C[C@H]1OC(=O)Nc1cccc(-c2ccccc2)c1
5. O=C(Nc1cccc(-c2ccc(O)cc2)c1)OC1CCCCC1
6. O=C(Nc1cccc(-c2ccccc2)c1)OC1CCCCC1

1. 98
2. 80
3. 73
4. 106
5. 83
6. 93

Find Activity (Monoglyceride lipase (Homo sapiens)) for the entry "O=C(Nc1cccc(-c2ccccc2)c1)OC1CCCC1"
93

====

Could you please report measured Activity for the items listed next?
# experimental_system: Monoglyceride lipase (Homo sapiens)
# assay_explanation: Inhibition of human recombinant MAGL assessed as remaining activity at 10 uM after 10 mins by spectrophotometry relative to control

| given_smiles | experimental_system | observed_measurement |
| --- | --- | --- |
| O=C(Nc1cccc(-c2ccccc2)c1)OC1CCC1 | Monoglyceride lipase (Homo sapiens) | 86% |
| O=C(Nc1cccc(-c2ccccc2)c1)NC1CCCC1 | Monoglyceride lipase (Homo sapiens) | 73% |

Lab note: each molecule below needs its Activity filled in.
1. S=C(Nc1cccc(-c2ccccc2)c1)OC1CCCCC1
2. O=C(Nc1cccc(-c2ccccc2)c1)OC1CCCCC1
3. O=C(Nc1cccc(-c2ccccc2)c1)O[C@H]1C[C@H]2CC[C@@H]1C2
4. O=C(Nc1cccc(-c2ccc(Cl)cc2)c1)OC1CCCCC1
5. O=C(Nc1cccc(-c2ccccc2)c1)OC1CCCC1
6. O=C(Nc1cccc(-c2ccccc2)c1)NC1CCCCC1

1. 83%
2. 71%
3. 79%
4. 81%
5. 71%
6. 79%

Provide Activity for all items below, preserving their order.
1. O=C(Nc1cccc(-c2ccccc2)c1)NC1CCCCCC1
2. S=C(Nc1cccc(-c2ccccc2)c1)OC1CCCCCC1

1: 80%; 2: 83%
